- target: recombinant guanylate cyclase reporter cell line (Rattus norvegicus, UniProt P19686+P20595)
- Construct: expressed in transfected cells
- Sequence (P19686 whole entry): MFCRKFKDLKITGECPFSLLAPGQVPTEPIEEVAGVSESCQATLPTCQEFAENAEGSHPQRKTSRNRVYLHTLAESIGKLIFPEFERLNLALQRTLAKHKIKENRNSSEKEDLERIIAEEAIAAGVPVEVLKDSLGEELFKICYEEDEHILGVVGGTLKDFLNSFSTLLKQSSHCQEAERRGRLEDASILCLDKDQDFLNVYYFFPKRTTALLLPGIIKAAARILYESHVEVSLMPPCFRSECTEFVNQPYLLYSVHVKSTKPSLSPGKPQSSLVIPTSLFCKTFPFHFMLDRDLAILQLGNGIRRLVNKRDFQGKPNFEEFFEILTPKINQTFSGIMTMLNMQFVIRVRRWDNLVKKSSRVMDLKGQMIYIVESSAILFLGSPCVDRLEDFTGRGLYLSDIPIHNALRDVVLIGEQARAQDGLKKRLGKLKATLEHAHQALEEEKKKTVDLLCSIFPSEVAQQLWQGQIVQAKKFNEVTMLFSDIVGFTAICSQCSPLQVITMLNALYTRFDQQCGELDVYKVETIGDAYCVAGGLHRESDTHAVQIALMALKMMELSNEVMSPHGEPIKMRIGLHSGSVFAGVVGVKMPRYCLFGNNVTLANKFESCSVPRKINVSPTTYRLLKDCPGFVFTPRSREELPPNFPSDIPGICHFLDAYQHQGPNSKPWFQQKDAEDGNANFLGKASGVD
- Sequence (P20595 whole entry): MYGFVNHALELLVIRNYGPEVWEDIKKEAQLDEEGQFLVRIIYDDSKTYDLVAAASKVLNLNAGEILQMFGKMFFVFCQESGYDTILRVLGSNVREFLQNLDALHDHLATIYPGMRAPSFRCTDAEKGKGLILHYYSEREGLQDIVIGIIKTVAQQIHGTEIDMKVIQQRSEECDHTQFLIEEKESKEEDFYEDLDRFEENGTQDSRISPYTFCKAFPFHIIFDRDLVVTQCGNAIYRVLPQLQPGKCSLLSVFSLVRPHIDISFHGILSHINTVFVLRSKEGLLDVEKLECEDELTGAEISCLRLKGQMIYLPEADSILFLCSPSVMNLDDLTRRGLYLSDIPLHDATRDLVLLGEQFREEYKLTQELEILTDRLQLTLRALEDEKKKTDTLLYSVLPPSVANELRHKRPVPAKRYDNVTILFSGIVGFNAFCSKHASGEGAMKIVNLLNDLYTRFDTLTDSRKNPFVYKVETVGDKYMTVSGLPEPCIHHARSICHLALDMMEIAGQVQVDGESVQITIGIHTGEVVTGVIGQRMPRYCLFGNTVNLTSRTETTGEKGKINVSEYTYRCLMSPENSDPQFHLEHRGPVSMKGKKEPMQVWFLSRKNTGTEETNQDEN
- method-description: Effect on a recombinant guanylate cyclase reporter cell line
- Format: cell-based
- measurement-setup: MEC = minimum effective concentration; in some cases means of individual determinations
- Procedure: B-2. Effect on a Recombinant Guanylate Cyclase Reporter Cell Line The cellular activity of the compounds of the invention is determined using a recombinant guanylate cyclase reporter cell line, as described in F. Wunder et al., Anal. Biochem. 2005, 339, 104-112. Representative values (MEC=minimum effective concentration) for the compounds of the invention are shown in the table below (Table 1B; in some cases as means of individual determinations): […]
reported-endpoint: MEC (µM)

• CCC(C)CNC(=O)c1nc(-c2nn(Cc3ccccc3F)c3ncccc23)nc2c1C(C)(C)C(=O)N2 (racemic) = 0.3
• CC1(C)C(=O)Nc2nc(-c3nn(Cc4ccccc4F)c4ncccc34)nc(C(=O)Nc3cc[nH]n3)c21 = 0.3
• Cc1nc2c(cc1F)c(-c1nc3c(c(C(N)=O)n1)C(C)(C(F)(F)F)C(=O)N3)nn2Cc1ncccc1F (single isomer, unassigned; ent-2) [Example 20] = 1
• Cc1nc2c(cc1F)c(-c1nc3c(c(C(N)=O)n1)C(C)(C(F)(F)F)C(=O)N3)nn2Cc1ccccc1F (racemic) [Example 12] = 0.065
• Cc1nc2c(cc1F)c(-c1nc3c(c(C(N)=O)n1)C(C)(C(F)(F)F)C(=O)N3)nn2Cc1cccc(F)c1F (racemic) [Example 9] = 0.3
• Cc1cc(NC(=O)c2nc(-c3nn(Cc4ccccc4F)c4ncccc34)nc3c2C(C)(C)C(=O)N3)ccn1 = 0.3

###

- target: recombinant guanylate cyclase reporter cell line (Rattus norvegicus, UniProt P19686+P20595)
- Construct: expressed in transfected cells
- method-description: Effect on a recombinant guanylate cyclase reporter cell line
- Type: cell-based
- measurement-setup: MEC = minimum effective concentration; in some cases means of individual determinations
reported-endpoint: MEC (µM)

- CC1(C(F)(F)F)C(=O)Nc2nc(-c3nn(Cc4ncccc4F)c4ncc(F)cc34)nc(C(N)=O)c21 (single isomer, unassigned; ent-2) [Example 23]: 6.5
- CCCCCCNC(=O)c1nc(-c2nn(Cc3ccccc3F)c3ncccc23)nc2c1C(C)(C)C(=O)N2 [Example 124]: 1
- CC1(C)C(=O)Nc2nc(-c3nn(Cc4ccccc4F)c4ncccc34)nc(C(=O)NCCSC(F)(F)F)c21 [Example 73]: 0.3
- Cc1ccc(NC(=O)c2nc(-c3nn(Cc4ccccc4F)c4ncccc34)nc3c2C(C)(C)C(=O)N3)cn1 [Example 91]: 0.3
- Cc1nc2c(cc1F)c(-c1nc3c(c(C(N)=O)n1)C(C)(C(F)(F)F)C(=O)N3)nn2Cc1ncccc1F (single isomer, unassigned; ent-2) [Example 19]: 10
- CC(C)N(C)C(=O)c1nc(-c2nn(Cc3ccccc3F)c3ncccc23)nc2c1C(C)(C)C(=O)N2 [Example 112]: 0.03
- CC[C@H](C)NC(=O)c1nc(-c2nn(Cc3ccccc3F)c3ncccc23)nc2c1C(C)(C)C(=O)N2 [Example 134]: 0.3

###

- target: human phosphodiesterase 5 (PDE 5) (Homo sapiens, UniProt O76074)
Simple rule here: IC50 less than 20 nM is 1, otherwise -1.

* CN(CC1CC1)C(=O)c1nc(-c2nn(Cc3ncccc3F)c3ncc(F)cc23)nc2c1C(C)(C)C(=O)N2 | -1
* CCCNC(=O)c1nc(-c2nn(Cc3ccccc3F)c3ncccc23)nc2c1C(C)(C)C(=O)N2 | 1
* Cc1nc2c(cc1F)c(-c1nc3c(c(C(N)=O)n1)C(C)(C(F)(F)F)C(=O)N3)nn2Cc1ccccc1F (single isomer, unassigned; ent-2) [Example 13] | -1
* Cc1nc2c(cc1F)c(-c1nc3c(c(C(N)=O)n1)C(C)(C)C(=O)N3)nn2Cc1c(F)ccc(F)c1F | -1
* Cn1ccc(NC(=O)c2nc(-c3nn(Cc4ccccc4F)c4ncccc34)nc3c2C(C)(C)C(=O)N3)n1 | -1
* CCNC(=O)c1nc(-c2nn(Cc3ccccc3F)c3ncccc23)nc2c1C(C)(C)C(=O)N2 | 1
* Cc1nc2c(cc1F)c(-c1nc3c(c(C(N)=O)n1)C(C)(C(F)(F)F)C(=O)N3)nn2Cc1ncccc1F (single isomer, unassigned; ent-2) | -1
* Cc1nc2c(cc1F)c(-c1nc3c(c(C(N)=O)n1)C(C)(C(F)(F)F)C(=O)N3)nn2Cc1c(F)ccc(F)c1F (single isomer, unassigned; ent-2) | -1
* CC1(C)C(=O)Nc2nc(-c3nn(Cc4ccccc4F)c4ncccc34)nc(C(=O)Nc3nncs3)c21 | -1
* CN(C(=O)c1nc(-c2nn(Cc3ccccc3F)c3ncc(F)cc23)nc2c1C(C)(C)C(=O)N2)C1CC1 | -1
* CC1(C)C(=O)Nc2nc(-c3nn(Cc4ccccc4F)c4ncccc34)nc(C(=O)NCCC(N)=O)c21 | -1
* C[C@H](NC(=O)c1nc(-c2nn(Cc3ccccc3F)c3ncccc23)nc2c1C(C)(C)C(=O)N2)C(N)=O | -1
* CC(C)N(C)C(=O)c1nc(-c2nn(Cc3ccccc3F)c3ncccc23)nc2c1C(C)(C)C(=O)N2 | -1
* CC1(C)C(=O)Nc2nc(-c3nn(Cc4ccccc4F)c4ncccc34)nc(C(=O)Nc3cccnc3)c21 | 1
* CN(CCO)C(=O)c1nc(-c2nn(Cc3ncccc3F)c3ncc(F)cc23)nc2c1C(C)(C)C(=O)N2 | -1
* CC1(C(F)(F)F)C(=O)Nc2nc(-c3nn(Cc4ncccc4F)c4ncc(F)cc34)nc(C(N)=O)c21 (single isomer, unassigned; ent-2) [Example 22] | -1
* CC1(C)C(=O)Nc2nc(-c3nn(Cc4ccccc4F)c4cc(Cl)ccc34)nc(C(=O)N3CCCC3)c21 | -1
* CC1(C)C(=O)Nc2nc(-c3nn(Cc4ccccc4F)c4ncccc34)nc(C(=O)NC3CCOC3)c21 (racemic) | 1
* CC1(C)C(=O)Nc2nc(-c3nn(Cc4ccccc4F)c4ncccc34)nc(C(=O)NCC(N)CC(F)(F)F)c21 (racemic) | -1
* COCCNC(=O)c1nc(-c2nn(Cc3ccccc3F)c3ncccc23)nc2c1C(C)(C)C(=O)N2 | 1
* CC1(C)C(=O)Nc2nc(-c3nn(Cc4ccccc4F)c4ncccc34)nc(C(=O)NCC3(O)CC3)c21 | -1
* CC[C@H](C)NC(=O)c1nc(-c2nn(Cc3ccccc3F)c3ncccc23)nc2c1C(C)(C)C(=O)N2 | 1

// provenance: patent US20170233413A1
